// IC50 lookup, one value per entry
system: Total ATXN3 (tATXN3) protein; assay: Endogenous Total ATXN3 (tATXN3) Protein Assay (MSD immunoassay of cell lysates); type: cell-based; details: average IC50, total ATXN3 protein in cell lysate after 48 h with compound (Table 1)

Completed entries (count: 3):
• N[C@H]1CCCCC[C@@H]1c1sc2c(NCc3cccs3)cc(Cl)nc2c1-c1ccccc1 = > 1000 nM
• N[C@H]1COCC[C@@H]1c1sc2c(NCc3nccs3)cc(Cl)nc2c1I = 30 to 300 nM
• Cn1c([C@@H]2CCOC[C@H]2N)c(Br)c2nc(Cl)cc(NCc3cccs3)c21 = 30 to 300 nM

Now take the following compound into account.
Please indicate IC50 recorded for N[C@H]1CCCN(c2ccccc2)[C@@H]1c1sc2c(NCc3cccs3)cc(Cl)nc2c1Br (mixture of isomers)
> 1000 nM

---

test system: Total ATXN3 (tATXN3) protein; experiment: Endogenous Total ATXN3 (tATXN3) Protein Assay (MSD immunoassay of cell lysates); assay type: cell-based; details: average IC50, total ATXN3 protein in cell lysate after 48 h with compound (Table 1)
pIC50: −log10 of the molar value.
// pIC50 lookup, one value per entry

• Cc1c([C@@H]2CCC[C@H]2N)sc2c(NCc3ccco3)cc(Cl)nc12 [Compound 145] = < 6.00
• N[C@H]1CCCC[C@@H]1c1sc2c(NCc3ccco3)cc(Cl)nc2c1Cl [Compound 173] = ≥ 7.52
• CC#CCNc1cc(Cl)nc2c(Br)c([C@H]3OCCC[C@@H]3N)sc12 [Compound 343] = 6.52 to 7.52
• N[C@H]1CCCCCC[C@@H]1c1cc2nc(Cl)cc(NCc3cccs3)c2s1 [Compound 103] = < 6.00
• CCOC(=O)C1=CC[C@H](c2sc3c(NCc4cccs4)cc(Cl)nc3c2C)[C@@H](N)C1 [Compound 277] = 6.52 to 7.52
• Cc1c([C@H]2CC=CC[C@@H]2N)sc2c(NCc3ccccc3F)cc(Cl)nc12 [Compound 341] = 6.52 to 7.52

Please indicate pIC50 recorded for N[C@H]1CCCO[C@@H]1c1sc2c(NCc3ccncc3)cc(Cl)nc2c1Br [Compound 251]
6.52 to 7.52

Please indicate pIC50 recorded for Cc1c([C@@H]2[C@@H](N)CCCC2(F)F)sc2c(NCc3cccs3)cc(Cl)nc12 [Compound 338]
6.52 to 7.52

Please indicate pIC50 recorded for N[C@H]1CCC[C@@H]1c1sc2c(NCc3cccs3)cc(Cl)nc2c1-c1ccccc1 [Compound 131]
< 6.00

Please indicate pIC50 recorded for N[C@H]1CCCO[C@@H]1c1sc2c(NCc3ccccc3)cc(Cl)nc2c1I [Compound 136]
≥ 7.52

Please indicate pIC50 recorded for N[C@H]1CCCN(c2ccccc2)[C@H]1c1sc2c(NCc3cccs3)cc(Cl)nc2c1Br (racemic) [Compound 125]
< 6.00

Please indicate pIC50 recorded for CC#CCNc1cc(Cl)nc2c(I)c([C@H]3CCCC[C@@H]3N)sc12 [Compound 283]
6.52 to 7.52

---

test system: Total ATXN3 (tATXN3) protein; assay: Endogenous Total ATXN3 (tATXN3) Protein Assay (MSD immunoassay of cell lysates); format: cell-based; settings: average IC50, total ATXN3 protein in cell lysate after 48 h with compound (Table 1)
Property Label: IC50

Please indicate IC50 recorded for CC#CCNc1cc(Cl)nc2c(Cl)c([C@H]3CC=CC[C@@H]3N)sc12
30 to 300 nM

Please indicate IC50 recorded for Cc1c([C@H]2OCCC[C@@H]2N)sc2c(NCc3ccccc3)nc(Cl)nc12
30 to 300 nM
